system: HT29 colon; assay: NCI-60 one-dose screen, 48 h; settings: 10 µM
The panel holds about 83,000 compounds, 20% with a hit somewhere; the sample as a whole holds those more often. Active and inactive are the calls of the source. The calls were made as follows: active = growth percent below 10; inactive = the rest.
Parameter call: string, one of active, inactive

CC(=O)Nc1ccc(NC(C)=O)c2c1C(=O)c1ccccc1C2=O : inactive

-- ask Which outcome did this test record for the compound `CCNc1nc2c(cnn2C)c(=O)[nH]1` ?
-- reply inactive

-- ask Request: CSC[C@H](NC(=O)COc1cccc2cnccc12)C(=O)NC(Cc1ccccc1)C(O)C(=O)N1CSC[C@H]1C(=O)NC(C)(C)C (some centres undefined)
-- reply inactive

-- ask Request: `COc1cc2c3c(n(C)c(=O)c2cc1OC)-c1cc2c(cc1C3=O)OCO2`
-- reply inactive
